Ref: ChEMBL document CHEMBL6127086

- protocol_notes: Antiproliferative activity against human MINO cells assessed as reduction in cell viability incubated fro 72 hrs by Celltiter-glo reagent based analysis
- Assay type: functional

compound | IC50 [nM]
Cc1sc2c(c1C)C(c1ccc(Cl)cc1)=N[C@@H](CC(=O)Nc1ccc(OCCOCCOCCOCCNc3cccc4c3C(=O)N(C3CCC(=O)NC3=O)C4=O)cc1)c1nnc(C)n1-2 (stereo partly specified) | 14.5

###

- Test system: CWR22R
- protocol_notes: Antiproliferative activity against human 22Rv1 cells assessed as reduction in cell viability incubated for 72 hrs by Celltiter- Glo assay
- Assay type: functional, cell-based
- cond: 22Rv1, 72 h

compound_smiles | IC50
Cc1ncsc1-c1ccc([C@H](C)NC(=O)[C@@H]2C[C@@H](O)CN2C(=O)[C@@H](NC(=O)COCCCOCCNC(=O)C[C@@H]2N=C(c3ccc(Cl)cc3)c3c(sc(C)c3C)-n3c(C)nnc32)C(C)(C)C)cc1 | < 1 nM

###

- Tested on: VCaP
- protocol_notes: Antiproliferative activity against human VCaP cells assessed as reduction in cell viability incubated for 72 hrs by Celltiter- Glo assay
- Type: functional, cell-based
pIC50: −log10 of the molar value.
observed_property: pIC50

compound_smiles | value
Cc1ncsc1-c1ccc([C@H](C)NC(=O)[C@@H]2C[C@@H](O)CN2C(=O)[C@@H](NC(=O)COCCCOCCNC(=O)C[C@@H]2N=C(c3ccc(Cl)cc3)c3c(sc(C)c3C)-n3c(C)nnc32)C(C)(C)C)cc1 | > 9.00
